Biological target: Cytochrome P450 2C9 (Homo sapiens) (UniProt P11712)
Sequence (P11712 whole entry, looked up): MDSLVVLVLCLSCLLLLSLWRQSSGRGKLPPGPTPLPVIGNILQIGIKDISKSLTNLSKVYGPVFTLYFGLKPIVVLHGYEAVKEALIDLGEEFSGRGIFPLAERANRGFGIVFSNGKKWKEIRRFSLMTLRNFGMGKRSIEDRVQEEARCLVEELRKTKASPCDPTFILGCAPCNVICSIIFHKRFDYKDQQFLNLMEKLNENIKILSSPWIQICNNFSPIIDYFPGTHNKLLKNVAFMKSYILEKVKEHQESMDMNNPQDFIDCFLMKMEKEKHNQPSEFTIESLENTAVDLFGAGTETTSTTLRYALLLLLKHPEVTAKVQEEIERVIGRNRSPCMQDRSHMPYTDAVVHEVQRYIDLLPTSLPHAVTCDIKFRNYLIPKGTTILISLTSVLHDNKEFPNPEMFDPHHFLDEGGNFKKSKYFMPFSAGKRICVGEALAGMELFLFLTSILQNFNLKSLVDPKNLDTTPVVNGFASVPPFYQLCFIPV
Assay: Cytochrome panel assay with activity outcomes
Conditions: recombinant CYP, pro-luciferin dealkylation, luminescence, p450-cyp2c9; series mostly up to 57.1 µM
Screen size: about 16,000 compounds; about 4,000 (25%) were called active. Roughly 26% stayed inconclusive and do not appear here. Not all results are given here.
assay_endpoint: AC50

>>> result("O=c1c(-c2cccc(Cl)c2)nc2cncnc2n1Cc1ccccc1Cl")
"3.98 µM (active)"
>>> result("O=C(c1ccncc1)N1CCC2(CCCN(Cc3ccccc3)C2)CC1")
"inactive"
>>> result("N/C(=N\\c1nc2ccccc2o1)NC(=O)c1ccccc1F")
"12.6 µM (active)"
>>> result("NC(=O)CNC(=O)[C@@H]1CC2(CC(c3ccccc3)=NO2)CN1C(=O)c1ccc(Br)cc1 (stereo partly drawn)")
"inactive"
>>> result("O=C1C2Sc3[nH]c(=O)sc3C(c3ccccc3)C2C(=O)N1c1ccccc1 (stereo not drawn)")
"12.6 µM (active)"
>>> result("Cn1cc(-c2nc3cnc(N4CCNCC4)nc3n(CCc3ccccc3)c2=O)c2ccccc21")
"10 µM (active)"

// field: AC50; key: `Cc1ccccc1NC(=O)OCc1cn(-c2ccc(Cl)cc2)nn1` ; value = inactive

For `O=c1c(-c2cccc(F)c2)nc2cncnc2n1Cc1ccccc1Cl` the compound record lists AC50 as 7.94 µM (active)

// sample `Cn1cc(-c2nc3cnc(N4CCNCC4)nc3n(Cc3ccc(F)cc3)c2=O)c2ccccc21` , its AC50 was 10 µM (active)

AC50 reading for `CN1CCC2(CC1)CCN(C(=O)c1cc(C(F)(F)F)cc(C(F)(F)F)c1)CC2` : inactive

So, `CCOC(=O)N1CCN(C(=O)c2oc3ccc(S(=O)(=O)N4CCCCC4)cc3c2C)CC1` ? Its AC50 was 10 µM (active)

AC50 recorded for this compound, `CNC(=S)NNC(=O)COc1ccccc1C` , is inactive

Entry under test: `NNC(=O)c1nn(-c2ccc(Cl)cc2)ccc1=O` . Its AC50 was inactive

Noted for `CCN(CCO)Cc1csc2cccc(Br)c12` : its AC50 reads inactive

Notebook: Cc1ccc(CCN2CC(C(=O)NCCN3CCCCCC3)CC2=O)cc1 (stereo not drawn) , AC50 read as inactive

AC50 measured on `O=C(CCc1nc2ccccc2c(=O)[nH]1)OCC(=O)N1CCN(S(=O)(=O)c2ccccc2)CC1` = inactive

response.value for O=C1C(C2=NC(C(=O)O)C3C(=O)N(c4ccc(Cl)cc4)C(=O)C23)=C(O)c2ccccc21 (stereo not drawn) (field: AC50) = inactive

Lookup result for `COc1ccc(C(=O)N2CCC3(CCCN(CC(C)C)C3)CC2)cc1` ; measured AC50: inactive

The measured AC50 associated with `COc1cccc(Cn2c(=O)c(-c3cn(C)c4ccccc34)nc3cnc(N4CCNCC4)nc32)c1` reads 20 µM (active)

# AC50 (compound: `O=c1c(-c2cccc(Cl)c2)nc2cncnc2n1C1CC1` ) is inactive

The reported value for `CN(C(=O)CN(CCO)CC(=O)N(C)C(C)(C)Cc1ccccc1)C(C)(C)Cc1ccccc1` in terms of AC50 is inactive

Per the record, `Cc1cc(Cl)ccc1Oc1ncc(-c2ccc(Cl)cc2)cn1` has AC50 of inactive
